Attribute: pKd
- subject.of.test: T1, biotinylated synthetic human Amyloid beta 1-42 peptide (human, UniProt P05067 672-713, biotinylated (N-terminal biotin in Example 4))
- T1 construct: domain: Amyloid beta 1-42 peptide; Numbers 1-42 count on the Amyloid beta peptide, not on APP; also called biotinylated human Amyloid beta 1-42; N-terminal biotin Abeta 1-42
- experiment: SPR (ProteOn); biotinylated peptide on streptavidin chip, scFv in solution
Units for pKd: none; it is -log10 of a concentration expressed in mol/L.

{"columns": ["binder", "reading"],
 "data": [
  ["Abet0370 scFv (scFv, V domains shown, not shown: small tags and cut ends, Purified scFv expressed in E. coli) VH: EVQLLESGGGLVQPGGSLRLSCAASGFHFPMSAMWWVRQAPGKGLEWVSVIGETPERQAYADSVKGRFTISRDNSKSTLYLQMNSLRAEDTAVYYCAREWMDHSRPYYYYGMDVWGQGTLVTVSS VL: SYELTQPPSVSVSPGQTASITCTTPHFNSKFASWYQQKPGQSPVLVIYRDDKRPSGIPERFSASNSGHTATLTISGTQAMDEADYYCQAQDSTTRVFGGGTRLTVL", 9.19],
  ["Abet0372 scFv (scFv, V domains shown, not shown: small tags and cut ends, Purified scFv expressed in E. coli) VH: EVQLLESGGGLVQPGGSLRLSCAASSDMFNIETMWWVRQAPGKGLEWVSVIGKGMNNVSYADSVKGRFTISRDNSKNTLYLQMNSLRAEDTAVYYCAREWMDHSRPYYYYGMDVWGQGTLVTVSS VL: SYELTQPPSVSVSPGQTASITCSGHNLEDKFASWYQQKPGQSPVLVIYRDDKRPSGIPERFSASNSGHTATLTISGTQATDEADYYCSSQDTVTRVFGGGTKLTVL", 9.14]
]}

## Input Given the binder Abet0144-GL scFv (scFv, V domains shown, not shown: small tags and cut ends, Purified scFv expressed in E. coli; also called parent clone) VH: EVQLLESGGGLVQPGGSLRLSCAASGFTFSVYTMWWVRQAPGKGLEWVSVIGSSGGTTVYADSVKGRFTISRDNSKNTLYLQMNSLRAEDTAVYYCAREWMDHSRPYYYYGMDVWGQGTLVTVSS VL: SYELTQPPSVSVSPGQTASITCSGHNLEDKFASWYQQKPGQSPVLVIYRDDKRPSGIPERFSASNSGHTATLTISGTQAMDEADYYCQAQDSTTRVFGGGTKLTVL , write its reported pKd.
## Output 7.23
